Each entry below carries its reported Activity.
- testSystem: Casein kinase I isoform epsilon (Homo sapiens) (UniProt P49674)
- Sequence (P49674 whole entry, looked up, canonical isoform): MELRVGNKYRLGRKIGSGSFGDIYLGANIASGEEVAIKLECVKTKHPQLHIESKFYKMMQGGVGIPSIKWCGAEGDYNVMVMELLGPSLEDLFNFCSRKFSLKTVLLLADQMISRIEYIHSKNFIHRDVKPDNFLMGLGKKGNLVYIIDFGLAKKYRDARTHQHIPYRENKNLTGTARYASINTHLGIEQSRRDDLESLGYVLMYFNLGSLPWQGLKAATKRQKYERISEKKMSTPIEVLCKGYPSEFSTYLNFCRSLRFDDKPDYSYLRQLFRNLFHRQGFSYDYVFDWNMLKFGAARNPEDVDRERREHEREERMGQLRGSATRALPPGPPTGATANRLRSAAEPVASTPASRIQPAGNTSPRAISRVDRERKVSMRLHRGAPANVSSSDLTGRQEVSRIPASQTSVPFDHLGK
- assaySummary: Inhibition of human recombinant CK1 epsilon expressed in baculovirus-infected Sf9 cells assessed as enzyme residual activity using RRKHAAIGSpAYSITA as substrate at 1 uM incubated for 30 mins in presence of ATP by ADP-Glo kinase assay

[
  {
    "compoundSmiles": "Brc1c[nH]c2cc3cnccc3cc12",
    "testSystem": "Casein kinase I isoform epsilon (Homo sapiens) (UniProt P49674)",
    "Activity [%]": 100
  },
  {
    "compoundSmiles": "Clc1c[nH]c2cc3cnccc3cc12",
    "testSystem": "Casein kinase I isoform epsilon (Homo sapiens) (UniProt P49674)",
    "Activity [%]": 100
  },
  {
    "compoundSmiles": "c1cc(-c2c[nH]c3cc4cnccc4cc23)ccn1",
    "testSystem": "Casein kinase I isoform epsilon (Homo sapiens) (UniProt P49674)",
    "Activity [%]": 61
  },
  {
    "compoundSmiles": "Nc1nccc(-c2c[nH]c3cc4cnccc4cc23)n1",
    "testSystem": "Casein kinase I isoform epsilon (Homo sapiens) (UniProt P49674)",
    "Activity [%]": 46
  },
  {
    "compoundSmiles": "c1cc2cc3cc[nH]c3cc2cn1",
    "testSystem": "Casein kinase I isoform epsilon (Homo sapiens) (UniProt P49674)",
    "Activity [%]": 97
  },
  {
    "compoundSmiles": "CN(C)Cc1c[nH]c2cc3cnccc3cc12",
    "testSystem": "Casein kinase I isoform epsilon (Homo sapiens) (UniProt P49674)",
    "Activity [%]": 100
  },
  {
    "compoundSmiles": "CCNCc1c[nH]c2cc3cnccc3cc12",
    "testSystem": "Casein kinase I isoform epsilon (Homo sapiens) (UniProt P49674)",
    "Activity [%]": 100
  },
  {
    "compoundSmiles": "CCN(CC)Cc1c[nH]c2cc3cnccc3cc12",
    "testSystem": "Casein kinase I isoform epsilon (Homo sapiens) (UniProt P49674)",
    "Activity [%]": 98
  },
  {
    "compoundSmiles": "Nc1cc2cc3ccncc3cc2[nH]1",
    "testSystem": "Casein kinase I isoform epsilon (Homo sapiens) (UniProt P49674)",
    "Activity [%]": 79
  },
  {
    "compoundSmiles": "Cn1ccc2cc3ccncc3cc21",
    "testSystem": "Casein kinase I isoform epsilon (Homo sapiens) (UniProt P49674)",
    "Activity [%]": 92
  },
  {
    "compoundSmiles": "CNCc1c[nH]c2cc3cnccc3cc12",
    "testSystem": "Casein kinase I isoform epsilon (Homo sapiens) (UniProt P49674)",
    "Activity [%]": 100
  },
  {
    "compoundSmiles": "Ic1c[nH]c2cc3cnccc3cc12",
    "testSystem": "Casein kinase I isoform epsilon (Homo sapiens) (UniProt P49674)",
    "Activity [%]": 69
  },
  {
    "compoundSmiles": "NCc1c[nH]c2cc3cnccc3cc12",
    "testSystem": "Casein kinase I isoform epsilon (Homo sapiens) (UniProt P49674)",
    "Activity [%]": 99
  },
  {
    "compoundSmiles": "c1cc2cc3c(-c4cncnc4)c[nH]c3cc2cn1",
    "testSystem": "Casein kinase I isoform epsilon (Homo sapiens) (UniProt P49674)",
    "Activity [%]": 81
  },
  {
    "compoundSmiles": "O=Cc1c[nH]c2cc3cnccc3cc12",
    "testSystem": "Casein kinase I isoform epsilon (Homo sapiens) (UniProt P49674)",
    "Activity [%]": 80
  },
  {
    "compoundSmiles": "c1ccc(-c2c[nH]c3cc4cnccc4cc23)cc1",
    "testSystem": "Casein kinase I isoform epsilon (Homo sapiens) (UniProt P49674)",
    "Activity [%]": 100
  },
  {
    "compoundSmiles": "CCn1ncc2cc3cnccc3c(N)c21",
    "testSystem": "Casein kinase I isoform epsilon (Homo sapiens) (UniProt P49674)",
    "Activity [%]": 84
  },
  {
    "compoundSmiles": "N#Cc1c[nH]c2cc3cnccc3cc12",
    "testSystem": "Casein kinase I isoform epsilon (Homo sapiens) (UniProt P49674)",
    "Activity [%]": 92
  },
  {
    "compoundSmiles": "ON=Cc1c[nH]c2cc3cnccc3cc12",
    "testSystem": "Casein kinase I isoform epsilon (Homo sapiens) (UniProt P49674)",
    "Activity [%]": 89
  },
  {
    "compoundSmiles": "OCc1c[nH]c2cc3cnccc3cc12",
    "testSystem": "Casein kinase I isoform epsilon (Homo sapiens) (UniProt P49674)",
    "Activity [%]": 100
  },
  {
    "compoundSmiles": "CC(=O)c1c[nH]c2cc3cnccc3cc12",
    "testSystem": "Casein kinase I isoform epsilon (Homo sapiens) (UniProt P49674)",
    "Activity [%]": 98
  },
  {
    "compoundSmiles": "Cn1cc(I)c2cc3ccncc3cc21",
    "testSystem": "Casein kinase I isoform epsilon (Homo sapiens) (UniProt P49674)",
    "Activity [%]": 100
  }
]

----------
- testSystem: Dual specificity tyrosine-phosphorylation-regulated kinase 1A (Rattus norvegicus) (UniProt Q63470)
- assaySummary: Inhibition of recombinant rat DYRK1A kinase domain (1 to 499 residues) expressed in bacteria assessed as enzyme residual activity using KKISGRLSPIMTEQ as substrate at 10 uM incubated for 30 mins in presence of ATP by ADP-Glo kinase assay
Each entry below carries its reported Activity.
reportedProperty: Activity (%)

[
  {
    "compoundSmiles": "CCN(CC)Cc1c[nH]c2cc3cnccc3cc12",
    "readoutNumber": 76
  },
  {
    "compoundSmiles": "O=Cc1c[nH]c2cc3cnccc3cc12",
    "readoutNumber": 7
  },
  {
    "compoundSmiles": "Brc1c[nH]c2cc3cnccc3cc12",
    "readoutNumber": 11
  },
  {
    "compoundSmiles": "COc1ncc2cc3cnccc3c([N+](=O)[O-])c2n1",
    "readoutNumber": 20
  },
  {
    "compoundSmiles": "c1cc2cc3c(-c4cncnc4)c[nH]c3cc2cn1",
    "readoutNumber": 20
  },
  {
    "compoundSmiles": "Nc1nccc(-c2c[nH]c3cc4cnccc4cc23)n1",
    "readoutNumber": 0
  },
  {
    "compoundSmiles": "CC(=O)c1c[nH]c2cc3cnccc3cc12",
    "readoutNumber": 0
  },
  {
    "compoundSmiles": "NCc1c[nH]c2cc3cnccc3cc12",
    "readoutNumber": 62
  },
  {
    "compoundSmiles": "c1cc(-c2c[nH]c3cc4cnccc4cc23)ccn1",
    "readoutNumber": 11
  },
  {
    "compoundSmiles": "OCc1c[nH]c2cc3cnccc3cc12",
    "readoutNumber": 62
  },
  {
    "compoundSmiles": "c1ccc(-c2c[nH]c3cc4cnccc4cc23)cc1",
    "readoutNumber": 19
  },
  {
    "compoundSmiles": "ON=Cc1c[nH]c2cc3cnccc3cc12",
    "readoutNumber": 1
  },
  {
    "compoundSmiles": "CCn1ncc2cc3cnccc3c(N)c21",
    "readoutNumber": 6
  },
  {
    "compoundSmiles": "c1cc2cc3cc[nH]c3cc2cn1",
    "readoutNumber": 37
  }
]

----------
- testSystem: Casein kinase I isoform epsilon (Homo sapiens) (UniProt P49674)
- assaySummary: Inhibition of human recombinant CK1 epsilon expressed in baculovirus-infected Sf9 cells assessed as enzyme residual activity using RRKHAAIGSpAYSITA as substrate at 10 uM incubated for 30 mins in presence of ATP by ADP-Glo kinase assay
reportedProperty: Activity (%)

[
  {
    "compoundSmiles": "Ic1c[nH]c2cc3cnccc3cc12",
    "testSystem": "Casein kinase I isoform epsilon (Homo sapiens) (UniProt P49674)",
    "reportedProperty": "Activity",
    "readoutNumber": 27
  },
  {
    "compoundSmiles": "CC(=O)c1c[nH]c2cc3cnccc3cc12",
    "testSystem": "Casein kinase I isoform epsilon (Homo sapiens) (UniProt P49674)",
    "reportedProperty": "Activity",
    "readoutNumber": 62
  },
  {
    "compoundSmiles": "CCNCc1c[nH]c2cc3cnccc3cc12",
    "testSystem": "Casein kinase I isoform epsilon (Homo sapiens) (UniProt P49674)",
    "reportedProperty": "Activity",
    "readoutNumber": 100
  },
  {
    "compoundSmiles": "CCN(CC)Cc1c[nH]c2cc3cnccc3cc12",
    "testSystem": "Casein kinase I isoform epsilon (Homo sapiens) (UniProt P49674)",
    "reportedProperty": "Activity",
    "readoutNumber": 100
  },
  {
    "compoundSmiles": "c1cc2cc3c(-c4cncnc4)c[nH]c3cc2cn1",
    "testSystem": "Casein kinase I isoform epsilon (Homo sapiens) (UniProt P49674)",
    "reportedProperty": "Activity",
    "readoutNumber": 43
  },
  {
    "compoundSmiles": "Clc1c[nH]c2cc3cnccc3cc12",
    "testSystem": "Casein kinase I isoform epsilon (Homo sapiens) (UniProt P49674)",
    "reportedProperty": "Activity",
    "readoutNumber": 82
  },
  {
    "compoundSmiles": "Nc1nccc(-c2c[nH]c3cc4cnccc4cc23)n1",
    "testSystem": "Casein kinase I isoform epsilon (Homo sapiens) (UniProt P49674)",
    "reportedProperty": "Activity",
    "readoutNumber": 10
  },
  {
    "compoundSmiles": "O=Cc1c[nH]c2cc3cnccc3cc12",
    "testSystem": "Casein kinase I isoform epsilon (Homo sapiens) (UniProt P49674)",
    "reportedProperty": "Activity",
    "readoutNumber": 34
  },
  {
    "compoundSmiles": "Cn1ccc2cc3ccncc3cc21",
    "testSystem": "Casein kinase I isoform epsilon (Homo sapiens) (UniProt P49674)",
    "reportedProperty": "Activity",
    "readoutNumber": 85
  },
  {
    "compoundSmiles": "Brc1c[nH]c2cc3cnccc3cc12",
    "testSystem": "Casein kinase I isoform epsilon (Homo sapiens) (UniProt P49674)",
    "reportedProperty": "Activity",
    "readoutNumber": 77
  },
  {
    "compoundSmiles": "Nc1cc2cc3ccncc3cc2[nH]1",
    "testSystem": "Casein kinase I isoform epsilon (Homo sapiens) (UniProt P49674)",
    "reportedProperty": "Activity",
    "readoutNumber": 52
  },
  {
    "compoundSmiles": "CCn1ncc2cc3cnccc3c(N)c21",
    "testSystem": "Casein kinase I isoform epsilon (Homo sapiens) (UniProt P49674)",
    "reportedProperty": "Activity",
    "readoutNumber": 48
  },
  {
    "compoundSmiles": "CNCc1c[nH]c2cc3cnccc3cc12",
    "testSystem": "Casein kinase I isoform epsilon (Homo sapiens) (UniProt P49674)",
    "reportedProperty": "Activity",
    "readoutNumber": 98
  },
  {
    "compoundSmiles": "ON=Cc1c[nH]c2cc3cnccc3cc12",
    "testSystem": "Casein kinase I isoform epsilon (Homo sapiens) (UniProt P49674)",
    "reportedProperty": "Activity",
    "readoutNumber": 46
  }
]
